// molecules with reported IC50 on Prostaglandin G/H synthase 2 (Homo sapiens, UniProt P35354), multi-publication
- SYSTEM_NAME: Prostaglandin G/H synthase 2 (Homo sapiens, UniProt P35354)
- Sequence (P35354 whole entry): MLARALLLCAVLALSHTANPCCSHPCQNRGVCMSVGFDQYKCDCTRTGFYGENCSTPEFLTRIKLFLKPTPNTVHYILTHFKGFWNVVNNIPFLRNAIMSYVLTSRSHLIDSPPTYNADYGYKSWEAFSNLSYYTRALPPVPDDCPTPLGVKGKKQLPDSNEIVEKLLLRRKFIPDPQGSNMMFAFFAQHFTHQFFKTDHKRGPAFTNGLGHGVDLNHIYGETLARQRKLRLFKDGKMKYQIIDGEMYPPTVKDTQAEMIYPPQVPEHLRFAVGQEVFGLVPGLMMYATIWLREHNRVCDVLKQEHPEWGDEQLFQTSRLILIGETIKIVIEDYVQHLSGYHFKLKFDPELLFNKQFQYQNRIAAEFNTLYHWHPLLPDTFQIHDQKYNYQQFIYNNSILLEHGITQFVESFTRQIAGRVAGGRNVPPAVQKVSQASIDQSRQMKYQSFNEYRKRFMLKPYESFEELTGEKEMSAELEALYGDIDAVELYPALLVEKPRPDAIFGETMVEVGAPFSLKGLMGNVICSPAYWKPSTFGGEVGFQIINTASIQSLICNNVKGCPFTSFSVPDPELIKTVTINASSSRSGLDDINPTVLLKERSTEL
MEASURED_METRIC: IC50 (µM)

Cc1ccc(Nc2ccccc2C(=O)NCCc2c[nH]c3ccccc23)cc1 :: 5.96

A: O=C(COc1cc(O)c2c(=O)cc(-c3ccccc3)oc2c1)OCc1cc(-c2cccc([N+](=O)[O-])c2)n(-c2ccccc2)n1
B: COc1ccc(/C=C/c2cc(OC)cc(OC)c2/C=C/C(=O)NC(C)(C)C)cc1
Hi there! Just curious which has the higher IC50 between A and B . The response must carry the label of the picked entry.
B
